molecular target: T1, dimeric human PRLR (hPRLR.mFc; SEQ ID NO:402) (Homo sapiens, UniProt P16471); assay: Surface plasmon resonance (Biacore T200), antibody-capture format; assay type: binding; settings: 37° C., analyte hPRLR.mFc
T1 construct: dimeric (hPRLR.mFc)
T1 sequence (P16471 with tags, fused parts or gaps): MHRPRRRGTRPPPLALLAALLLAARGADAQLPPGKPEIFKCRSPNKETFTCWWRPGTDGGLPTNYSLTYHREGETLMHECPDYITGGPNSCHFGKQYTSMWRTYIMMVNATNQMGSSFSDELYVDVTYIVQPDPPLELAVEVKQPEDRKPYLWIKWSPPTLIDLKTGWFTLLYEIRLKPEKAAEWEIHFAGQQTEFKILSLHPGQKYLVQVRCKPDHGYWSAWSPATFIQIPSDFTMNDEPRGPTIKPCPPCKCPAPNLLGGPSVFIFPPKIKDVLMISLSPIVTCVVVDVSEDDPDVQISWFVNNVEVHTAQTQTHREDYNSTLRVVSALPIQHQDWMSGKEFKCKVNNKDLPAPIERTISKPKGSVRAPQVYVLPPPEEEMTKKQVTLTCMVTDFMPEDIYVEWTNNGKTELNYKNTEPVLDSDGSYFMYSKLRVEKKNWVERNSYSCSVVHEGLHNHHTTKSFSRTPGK

{"MOLECULE": "H1H6785P: fully human anti-PRLR antibody, human IgG1 Fc; HCVR/LCVR SEQ ID NOs 98/106 (antibody, V domains shown) VH: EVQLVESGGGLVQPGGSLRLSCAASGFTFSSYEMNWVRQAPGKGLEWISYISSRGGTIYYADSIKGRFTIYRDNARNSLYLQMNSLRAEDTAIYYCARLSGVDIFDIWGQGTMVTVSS VL: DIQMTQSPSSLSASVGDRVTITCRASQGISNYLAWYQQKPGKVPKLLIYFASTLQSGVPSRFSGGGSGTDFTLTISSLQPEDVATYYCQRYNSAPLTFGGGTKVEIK", "kd": "0.000117 s⁻¹"}
{"MOLECULE": "H1H6803P: fully human anti-PRLR antibody, human IgG1 Fc; HCVR/LCVR SEQ ID NOs 226/234 (antibody, V domains shown) VH: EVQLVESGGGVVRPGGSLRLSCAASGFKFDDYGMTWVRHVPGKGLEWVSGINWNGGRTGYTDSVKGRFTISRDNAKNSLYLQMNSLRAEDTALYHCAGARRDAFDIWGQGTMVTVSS VL: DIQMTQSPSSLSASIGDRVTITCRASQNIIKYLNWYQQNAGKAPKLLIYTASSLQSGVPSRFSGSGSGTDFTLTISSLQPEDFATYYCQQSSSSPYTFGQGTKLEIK", "kd": "6.2e-05 s⁻¹"}

The values you see were collected from patent US10925971B2.
